- Assay System: C1orf115
- Assay Details: pooled miR-30 sensor sort-seq; sequence = guide strand; further: reference of the scale not given here
- Experimental Context: shRNA
Recorded sensor-assay potency score (higher = more potent) determines the label; the label ranges are bin 0: < -1; bin 1: ≥ -1 and < 0.6; bin 2: ≥ 0.6

[[record]]
primary_sequence = "TTGCAGGCCGATGACCACGTAG"
assigned_category = "bin 0"

[[record]]
primary_sequence = "TACTTCTTCAGCTTCCTCCGGT"
assigned_category = "bin 2"

[[record]]
primary_sequence = "TCTAGTAACATCCTCTTCCTCC"
assigned_category = "bin 1"

[[record]]
primary_sequence = "TTCTCTTCCAAATATGCTGTGT"
assigned_category = "bin 1"

[[record]]
primary_sequence = "TGACTCTAGTAACATCCTCTTC"
assigned_category = "bin 0"

[[record]]
primary_sequence = "TCTGACTCTAGTAACATCCTCT"
assigned_category = "bin 2"

[[record]]
primary_sequence = "TCGTCCGCCGCGCTCGTCCCGC"
assigned_category = "bin 0"

[[record]]
primary_sequence = "TTGAGGAATAAACAGCTCCTTA"
assigned_category = "bin 0"


====

- Assay System: THNSL1
- Assay Details: pooled miR-30 sensor sort-seq; sequence = guide strand
- Experimental Context: shRNA
Classification field: enter Y for sensor-assay potency score (higher = more potent) values not below -0.04, N for values below it.

[[record]]
primary_sequence = "TATGACACAACAACCTAGTTTC"
assigned_category = "N"

[[record]]
primary_sequence = "TTGCTCATTACCAACATCCTGT"
assigned_category = "Y"

[[record]]
primary_sequence = "TTTGTCTCCAACAAGAGAGTGG"
assigned_category = "N"

[[record]]
primary_sequence = "TATAATTGCAACTTGGTGGGAT"
assigned_category = "Y"

[[record]]
primary_sequence = "TATCTGTGCTCTTTCTACGTAG"
assigned_category = "N"

[[record]]
primary_sequence = "TATACTAGAAAAACATTTCTGT"
assigned_category = "Y"

[[record]]
primary_sequence = "TTCTTTAATCTTTAAAGCCTGC"
assigned_category = "N"

[[record]]
primary_sequence = "ATCTAGTAGAGGTACATCCAGG"
assigned_category = "N"


====

- Assay System: RANGAP1
- Assay Details: pooled miR-30 sensor sort-seq; sequence = guide strand
- Experimental Context: shRNA
Listed sequences paired with reported sensor-assay potency score (higher = more potent)
Recorded Metric: sensor-assay potency score (higher = more potent)

[[record]]
primary_sequence = "TTGAACACAGATGACACCTTTA"
recorded_result = -0.0745

[[record]]
primary_sequence = "TTTCCGGTGACATTCGGTCAGA"
recorded_result = -1.19

[[record]]
primary_sequence = "AATCTCTTTAATCACATCTTTA"
recorded_result = -1.26

[[record]]
primary_sequence = "TTGACCTTGTCTTCACTCTTGA"
recorded_result = 0.405

[[record]]
primary_sequence = "TTGGAGTTGAAGGACGAGGAGT"
recorded_result = -0.814

[[record]]
primary_sequence = "TTCAACTCCGACTTCTTCTCTA"
recorded_result = 0.789

[[record]]
primary_sequence = "TTAGGGTCCAGAATCTTCCGTG"
recorded_result = 0.289


====

Listed sequences paired with reported sensor-assay potency score (higher = more potent)
- Assay System: PLXNA3
- Assay Details: pooled miR-30 sensor sort-seq; sequence = guide strand
- Experimental Context: shRNA
Recorded Metric: sensor-assay potency score (higher = more potent)

[[record]]
primary_sequence = "TTGTTGATGTTGTCCACGGGGG"
recorded_result = -0.257

[[record]]
primary_sequence = "TGTCTTGTAGTCGATCTGCTGA"
recorded_result = -0.0226

[[record]]
primary_sequence = "TTGTAGTCGATCTGCTGACGGA"
recorded_result = -0.986

[[record]]
primary_sequence = "TTGTGTGTCCGAGACAGTGAGC"
recorded_result = -0.941

[[record]]
primary_sequence = "TAGAACTCTGAGTCTCCCGCGC"
recorded_result = -0.24

[[record]]
primary_sequence = "TAGATCTCGGAGACCATCTTGC"
recorded_result = -0.165

[[record]]
primary_sequence = "TACAAGGACAGCGTGTCTGAGG"
recorded_result = -0.523


====

Listed sequences paired with reported sensor-assay potency score (higher = more potent)
- Assay System: CDH24
- Assay Details: pooled miR-30 sensor sort-seq; sequence = guide strand
- Experimental Context: shRNA
Recorded Metric: sensor-assay potency score (higher = more potent)

[[record]]
primary_sequence = "TAGGCTGGGTCAATGAGCGTGT"
recorded_result = -0.193

[[record]]
primary_sequence = "TTCGAGTCCGCAGCAGAGCAGG"
recorded_result = -1.36

[[record]]
primary_sequence = "ATCCAGAACAGTGTACACCAGC"
recorded_result = -0.986

[[record]]
primary_sequence = "TTGTCCTGGACAGTAAAGTTGG"
recorded_result = -0.744

[[record]]
primary_sequence = "TTCCTCAATGACAAAGAACTGG"
recorded_result = -0.774

[[record]]
primary_sequence = "TGCAAGTCTGTGCTGATGCTGA"
recorded_result = -0.691

[[record]]
primary_sequence = "TCGTTGACATCGCTGAGCGTGA"
recorded_result = -0.691

[[record]]
primary_sequence = "TCATCAATCACAAATACGGTGC"
recorded_result = -0.0927


====

- Assay System: GIP
- Assay Details: pooled miR-30 sensor sort-seq; sequence = guide strand
- Experimental Context: shRNA
Classification field: enter condition met for sensor-assay potency score (higher = more potent) values not below -1, condition not met for values below it.

[[record]]
primary_sequence = "TCACCTTAGCATGAGATCCAAC"
assigned_category = "condition not met"

[[record]]
primary_sequence = "TTGTCCATGGCAATACTGTAGT"
assigned_category = "condition met"

[[record]]
primary_sequence = "AAAGTCTTGTTGGTGAATCTTG"
assigned_category = "condition met"

[[record]]
primary_sequence = "TCTTGAATCAGCAAGTCCCGCA"
assigned_category = "condition met"

[[record]]
primary_sequence = "TAGTCACTGATGAAAGTCCCTT"
assigned_category = "condition met"

[[record]]
primary_sequence = "TTGTTGGTGAATCTTGTCCATG"
assigned_category = "condition not met"

[[record]]
primary_sequence = "TAGCATGAGATCCAACAGGCAG"
assigned_category = "condition met"

[[record]]
primary_sequence = "AATACTGTAGTCACTGATGAAA"
assigned_category = "condition not met"

[[record]]
primary_sequence = "TTTGTCTGATCCAGCAAGCAGG"
assigned_category = "condition not met"


====

Listed sequences paired with reported sensor-assay potency score (higher = more potent)
- Assay System: SLC6A11
- Assay Details: pooled miR-30 sensor sort-seq; sequence = guide strand
- Experimental Context: shRNA
Recorded Metric: sensor-assay potency score (higher = more potent)

[[record]]
primary_sequence = "TCATTAACTGTCACCATCCGTG"
recorded_result = -0.565

[[record]]
primary_sequence = "TTATCATAGAACCGGTTGCTTC"
recorded_result = -1.38

[[record]]
primary_sequence = "TTCTGCAGAGACACATGGCTGT"
recorded_result = 0.541

[[record]]
primary_sequence = "TTCACTTGTGAACTGCCCCAGA"
recorded_result = -0.108

[[record]]
primary_sequence = "TTAACTGTCACCATCCGTGGGC"
recorded_result = 0.397

[[record]]
primary_sequence = "TACAAGTAGAACTTGATGCCCT"
recorded_result = 0.00476

[[record]]
primary_sequence = "TAGGAGAAAAAGATCTGCGTTC"
recorded_result = -0.00212


====

- Assay System: AMPH
- Assay Details: pooled miR-30 sensor sort-seq; sequence = guide strand
- Experimental Context: shRNA
Recorded Metric: sensor-assay potency score (higher = more potent)

[[record]]
primary_sequence = "TTGCTGCTAAATATCCTCGGAG"
recorded_result = -0.441

[[record]]
primary_sequence = "TAGAGATTCGACTCTCATCCTT"
recorded_result = 0.077

[[record]]
primary_sequence = "TAAATGAACCACCAGAAGCCGG"
recorded_result = -1.23

[[record]]
primary_sequence = "TTACTTTAGAACAATCTGTGAA"
recorded_result = -0.181

[[record]]
primary_sequence = "AAACTCTTCAAACACTTTCTGT"
recorded_result = -0.65

[[record]]
primary_sequence = "TTTCCTTATGAAACTTGGCTTC"
recorded_result = -0.107

[[record]]
primary_sequence = "TTGTGAATAATGAAGTATCCTG"
recorded_result = -0.215


====

- Assay System: CYP2E1
- Assay Details: pooled miR-30 sensor sort-seq; sequence = guide strand
- Experimental Context: shRNA
Recorded Metric: sensor-assay potency score (higher = more potent)

[[record]]
primary_sequence = "TCACTGTACTTGAACTTTCCAT"
assay_system = "CYP2E1"
recorded_result = -0.768

[[record]]
primary_sequence = "ATAGTCACTGTACTTGAACTTT"
assay_system = "CYP2E1"
recorded_result = -0.806

[[record]]
primary_sequence = "TTATTAAAAATGATTCCCCTGT"
assay_system = "CYP2E1"
recorded_result = 0.074

[[record]]
primary_sequence = "TTTTTTATGACTTTTCTGTGGC"
assay_system = "CYP2E1"
recorded_result = 0.343

[[record]]
primary_sequence = "TTAAACAAATACATCAGCCTTA"
assay_system = "CYP2E1"
recorded_result = 0.593

[[record]]
primary_sequence = "TTATTGTAAAGCTGGAGCCAGG"
assay_system = "CYP2E1"
recorded_result = -1.09

[[record]]
primary_sequence = "TAGTCACTGTACTTGAACTTTC"
assay_system = "CYP2E1"
recorded_result = -0.787

[[record]]
primary_sequence = "TTCATGGAGCTTCTCTTCGATC"
assay_system = "CYP2E1"
recorded_result = -1.27

[[record]]
primary_sequence = "TACAGCGTGAACACCGGCCCGA"
assay_system = "CYP2E1"
recorded_result = -0.641

[[record]]
primary_sequence = "TTGGTTGTCATACAAAACAGAG"
assay_system = "CYP2E1"
recorded_result = -1.2

[[record]]
primary_sequence = "TGTCATACAAAACAGAGTCCAG"
assay_system = "CYP2E1"
recorded_result = -0.481

[[record]]
primary_sequence = "TTGTAGTCAAAATGCTTGCGGA"
assay_system = "CYP2E1"
recorded_result = -0.87

[[record]]
primary_sequence = "TTGGGGATGAGGTATCCTCTGA"
assay_system = "CYP2E1"
recorded_result = -0.671

[[record]]
primary_sequence = "TTGAAATAGTCACTGTACTTGA"
assay_system = "CYP2E1"
recorded_result = -0.183

[[record]]
primary_sequence = "TAAACAAATACATCAGCCTTAG"
assay_system = "CYP2E1"
recorded_result = -0.917


The measurements presented in this section are drawn from the OligoGym collection.
